- Test system: AncSZ
- assay_remarks: phosphorylation enrichment, bacterial display (enrichment ratio); higher = better substrate or ligand; peptides without Tyr show the background;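 note: 11-residue human phosphosite peptides and single-mutation variants displayed on the E. coli surface, counted by deep sequencing, each peptide's frequency after selection divided by its frequency in the unselected input library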;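 note: frequency after pTyr selection over input frequency; kinase dosed for 20-30% of maximal phosphorylation in three min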
Assign Condition met to entries whose phosphorylation enrichment meets or exceeds 0.9; assign Condition not met to the rest.

# sequence_string, measured_on, assigned_class
data = [
    ("NRLTDYYEPLL [BBS10_Y536]", "AncSZ", "Condition met"),
    ("GDKENYGLPQP [BUB1_Y538_N534D]", "AncSZ", "Condition not met"),
    ("LVQAEYWHDRI [PPT1_Y185_P189R]", "AncSZ", "Condition met"),
    ("TTPGPHRSIYF [MPG_Y71_Y71H]", "AncSZ", "Condition not met"),
    ("LLLLFYVVRYC [MPZ_Y177]", "AncSZ", "Condition not met"),
]

====

- measured_on: FGFR1 (UniProt P11362)
- Sequence (P11362 whole entry, looked up): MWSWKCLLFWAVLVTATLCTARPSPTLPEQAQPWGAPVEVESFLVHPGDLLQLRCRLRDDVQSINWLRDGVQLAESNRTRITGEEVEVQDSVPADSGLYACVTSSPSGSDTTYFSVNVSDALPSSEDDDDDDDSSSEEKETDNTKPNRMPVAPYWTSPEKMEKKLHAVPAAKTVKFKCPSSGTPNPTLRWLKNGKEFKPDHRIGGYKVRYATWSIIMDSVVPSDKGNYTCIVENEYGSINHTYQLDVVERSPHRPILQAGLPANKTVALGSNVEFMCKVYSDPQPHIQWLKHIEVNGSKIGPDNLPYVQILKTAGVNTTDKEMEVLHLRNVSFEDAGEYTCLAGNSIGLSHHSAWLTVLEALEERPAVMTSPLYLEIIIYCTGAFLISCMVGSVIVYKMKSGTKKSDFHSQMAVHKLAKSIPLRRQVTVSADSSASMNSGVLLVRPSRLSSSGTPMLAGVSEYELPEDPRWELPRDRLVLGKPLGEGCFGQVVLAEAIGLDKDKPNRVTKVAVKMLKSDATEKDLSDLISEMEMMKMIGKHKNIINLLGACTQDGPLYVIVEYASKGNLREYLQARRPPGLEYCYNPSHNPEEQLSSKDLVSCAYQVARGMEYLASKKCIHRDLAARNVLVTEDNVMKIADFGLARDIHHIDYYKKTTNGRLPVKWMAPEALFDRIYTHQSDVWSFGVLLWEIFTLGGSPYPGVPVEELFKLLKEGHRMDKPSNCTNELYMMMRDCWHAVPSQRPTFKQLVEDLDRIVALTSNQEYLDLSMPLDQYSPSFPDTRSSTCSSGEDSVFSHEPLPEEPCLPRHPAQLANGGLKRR
- assay_remarks: phosphorylation enrichment, bacterial display (enrichment ratio); higher = better substrate or ligand; peptides without Tyr show the background
Measured phosphorylation enrichment accompanies every entry in the list below.

# sequence_string, phosphorylation enrichment
data = [
    ("TYTVSYLPDMS [FLNC_Y1602]", 0.512),
    ("GQETSYIEDNC [PAH_Y24]", 0.452),
    ("QSSALYEDHYL [ASS1_Y83_R86H]", 0.477),
    ("FHRQLYHKCTH [F12_Y58_YF]", 0.387),
    ("GKGGSYSKAES [HLA-E_Y341_W346S]", 0.391),
    ("ARMTNYGLPRF [TSPAN12_Y138_YF]", 0.42),
    ("LDAFIYNAAVL [GRIN2A_Y730_D731N]", 2.36),
    ("KGSEGYLAAIY [NF1_Y2503_T2507I]", 0.572),
    ("STQAHYRLSAF [ADAMTS9_Y100_S96T]", 0.44),
    ("GDKENYGLPQP [BUB1_Y538_N534D]", 0.452),
    ("HKGASYVFRLS [PTPRD_Y891]", 0.536),
    ("GIVEEYQLPYY [BMPR1A_Y453]", 1.06),
]

====

- measured_on: FGFR3 (UniProt P22607)
- Sequence (P22607 whole entry, looked up): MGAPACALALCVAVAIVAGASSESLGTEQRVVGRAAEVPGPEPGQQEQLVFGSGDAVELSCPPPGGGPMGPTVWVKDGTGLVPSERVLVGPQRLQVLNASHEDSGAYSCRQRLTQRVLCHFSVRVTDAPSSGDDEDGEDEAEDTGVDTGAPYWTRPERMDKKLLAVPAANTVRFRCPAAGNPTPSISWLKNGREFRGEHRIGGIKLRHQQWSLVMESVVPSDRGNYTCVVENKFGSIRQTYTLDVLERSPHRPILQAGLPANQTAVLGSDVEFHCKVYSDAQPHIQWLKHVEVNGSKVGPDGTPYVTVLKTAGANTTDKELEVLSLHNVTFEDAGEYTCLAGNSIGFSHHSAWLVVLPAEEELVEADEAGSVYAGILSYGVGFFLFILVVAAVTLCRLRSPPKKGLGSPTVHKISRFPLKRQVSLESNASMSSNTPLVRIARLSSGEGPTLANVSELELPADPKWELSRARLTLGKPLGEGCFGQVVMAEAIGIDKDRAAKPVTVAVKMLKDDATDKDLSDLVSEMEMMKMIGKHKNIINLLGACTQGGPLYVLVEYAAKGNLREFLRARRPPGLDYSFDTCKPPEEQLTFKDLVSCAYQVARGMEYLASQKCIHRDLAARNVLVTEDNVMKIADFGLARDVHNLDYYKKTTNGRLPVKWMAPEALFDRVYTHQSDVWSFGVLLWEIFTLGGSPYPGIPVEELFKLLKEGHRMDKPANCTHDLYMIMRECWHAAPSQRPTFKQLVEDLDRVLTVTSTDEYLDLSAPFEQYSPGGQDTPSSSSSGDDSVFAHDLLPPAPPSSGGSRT
- assay_remarks: phosphorylation enrichment, bacterial display (enrichment ratio); higher = better substrate or ligand; peptides without Tyr show the background

# sequence_string, phosphorylation enrichment
rows = [
    ("SVVVPYEPPGV [TP53_Y220_E224G]", 0.56),
    ("NGSFRYVIISQ [LRP1B_Y1988]", 0.71),
    ("KEEEDYREENN [BMS1_Y651_K652R]", 0.79),
    ("GEEIKYTLWLS [OTC_Y55_M56T]", 0.882),
    ("ALAAPYVLYPS [CEFIP_Y1332_G1337S]", 1.28),
    ("YKPGFYNLKEK [LAMA1_Y490_C485Y]", 0.402),
    ("LGKLTYPVGFW [NTHL1_Y177_I176T]", 1.48),
    ("DERQPYVHMNG [IGF1R_Y1346_A1347V]", 0.627),
    ("LYVDVYGPSVP [NUBPL_Y109_D105Y]", 2.02),
    ("ANVKWYRSGRE", 0.886),
    ("MTRDIYRASYY [ALK_Y1278_A1274T]", 0.676),
    ("NAGDYYDLYGG [PTPN11_Y63_T59A]", 18.9),
    ("GTHCHYKAPTV [FZD9_Y569]", 0.51),
    ("EIIPFYGMSSY [FNDC3B_Y175_T179S]", 0.672),
    ("TSAEGYQDVRD [ABLIM1_Y439_P434T]", 0.659),
    ("QQLDKYQELLD [LMNA_Y359_E358K]", 0.783),
    ("INITIYGKTFH [EFHC1_Y177_R182H]", 0.817),
    ("YQCKHYACIRQ [TIMP3_Y182_S179C]", 0.455),
    ("PYYASYPPSPD [GDAP2_Y491_T489A]", 3.53),
    ("CNNFICGGCRG [SPINT2_Y163_Y163C]", 0.644),
    ("IGERTYGQVYK [CDK13_Y716_G714R]", 0.41),
    ("SVVVPYGPPEV [TP53_Y220_E221G]", 0.556),
    ("MEIHAYLKLLE [LMNA_Y376_R377L]", 0.959),
    ("NSNSDYVDILP [SH2D1B_Y127_V130I]", 3.11),
    ("LLRLAYLADIF [ZBED5_Y476]", 0.636),
    ("KGVDRYNPENL [EIF3K_Y21_I18V]", 0.372),
    ("FETSHYLASPD [CTNND2_Y1217_P1218L_YF]", 0.752),
    ("YLEKYYKFGCR [NNMT_Y25_S29C]", 0.928),
    ("RASDFYSQQMA [GBP6_Y334_A331S_YF]", 0.605),
    ("HLTLVYGGIFL [FBP1_Y259_R255L]", 1.15),
]

====

- measured_on: EPHB1 (UniProt P54762)
- Sequence (P54762 whole entry, looked up): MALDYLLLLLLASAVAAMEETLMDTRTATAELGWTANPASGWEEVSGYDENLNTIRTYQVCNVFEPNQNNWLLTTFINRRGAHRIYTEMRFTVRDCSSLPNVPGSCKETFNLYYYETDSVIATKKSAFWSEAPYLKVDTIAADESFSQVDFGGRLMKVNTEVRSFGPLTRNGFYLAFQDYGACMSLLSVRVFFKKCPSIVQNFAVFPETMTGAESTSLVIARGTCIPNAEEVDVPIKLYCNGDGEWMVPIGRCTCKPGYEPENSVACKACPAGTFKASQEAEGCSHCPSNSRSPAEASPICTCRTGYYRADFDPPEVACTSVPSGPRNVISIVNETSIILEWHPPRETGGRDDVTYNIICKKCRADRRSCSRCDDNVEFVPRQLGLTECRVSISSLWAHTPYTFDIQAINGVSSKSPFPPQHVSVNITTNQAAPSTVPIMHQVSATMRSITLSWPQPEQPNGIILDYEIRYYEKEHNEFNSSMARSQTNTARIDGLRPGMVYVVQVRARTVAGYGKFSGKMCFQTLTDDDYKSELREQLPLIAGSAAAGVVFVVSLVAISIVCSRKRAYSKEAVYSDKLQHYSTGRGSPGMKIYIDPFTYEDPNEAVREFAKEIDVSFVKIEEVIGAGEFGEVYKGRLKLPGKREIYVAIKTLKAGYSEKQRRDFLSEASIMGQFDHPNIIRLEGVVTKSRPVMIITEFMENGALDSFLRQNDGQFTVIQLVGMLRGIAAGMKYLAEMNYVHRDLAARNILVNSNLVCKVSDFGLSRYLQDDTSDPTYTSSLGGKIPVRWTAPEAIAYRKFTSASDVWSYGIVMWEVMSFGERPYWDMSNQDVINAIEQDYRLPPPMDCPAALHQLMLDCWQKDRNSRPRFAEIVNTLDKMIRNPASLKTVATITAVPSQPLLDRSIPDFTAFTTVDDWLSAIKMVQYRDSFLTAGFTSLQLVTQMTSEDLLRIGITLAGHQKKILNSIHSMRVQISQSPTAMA
- assay_remarks: phosphorylation enrichment, bacterial display (enrichment ratio); higher = better substrate or ligand; peptides without Tyr show the background
Assign Criterion met to entries whose phosphorylation enrichment meets or exceeds 0.5; assign Criterion not met to the rest.

# sequence_string, assigned_class
records = [
    ("GIVKAYFVHAR [AIPL1_Y267_R270H_YF]", "Criterion not met"),
    ("PMWHPYKVDVT [TP53TG5_Y255]", "Criterion met"),
    ("IPGRYYETGSI [PAX2_Y73_L69P]", "Criterion not met"),
    ("RDSQLYAVDFE [MRPS34_Y34_YF]", "Criterion met"),
    ("LREKVYASLEA [RXRA_Y397]", "Criterion met"),
    ("YAFQLYDLDRD [CHP2_Y123]", "Criterion met"),
    ("KQVEQYMSFHK [HCN1_Y417]", "Criterion met"),
    ("QWPGPYDRPGA [HNRNPH2_Y210_R206W]", "Criterion not met"),
    ("PRRRFYVVACD [RNASE3_Y134_G130R]", "Criterion met"),
    ("DHCNQYEQQKM [CHD7_Y75_Y72C]", "Criterion met"),
    ("INITIYGKTFH [EFHC1_Y177_R182H]", "Criterion met"),
    ("ELAKFYKLHHI [AK7_Y391_N389K_YF]", "Criterion met"),
    ("GAPATYEGDAR [CACNA1A_Y1013]", "Criterion not met"),
    ("QNVADYMRCLM [RPL5_Y207_Y210C]", "Criterion met"),
    ("YRTGHYLCNAC [GATA1_Y223_D218Y]", "Criterion not met"),
    ("YVFSFYHAFSG [ACTN4_Y265_S262F]", "Criterion met"),
    ("LKFAIYFEVRE [LAMA2_Y1258_A1261V_YF]", "Criterion met"),
    ("LYVDVYGPSVP [NUBPL_Y109_D105Y]", "Criterion met"),
    ("SSFPDYLAAVD [GLB1_Y154_D151Y_YF]", "Criterion met"),
    ("FSCLPCGRLAY [SLC52A2_Y305_Y305C]", "Criterion not met"),
    ("TRNVRYLTLDI [AKR1C2_Y305_N300T]", "Criterion met"),
    ("QQLDKYQELLD [LMNA_Y359_E358K]", "Criterion met"),
    ("KANEYYPVVII [ADAMTS18_Y765_L769I]", "Criterion met"),
    ("SMAKFYASGIA [ACADSB_Y373_E376G_YF]", "Criterion not met"),
    ("VEDHYYEGGIG [TKT_Y564]", "Criterion met"),
    ("YEDALYTVLHR [UNC13D_Y61]", "Criterion met"),
    ("SGVSFYINLCQ [IGF2R_Y2025_N2020S_YF]", "Criterion met"),
    ("RGDIFYTSKLW [AKR1C3_Y81_E77G]", "Criterion met"),
    ("NSRYTCKLEVK [USH2A_Y3747_Y3747C]", "Criterion met"),
    ("WPLKWYVPECI [ZAP70_Y506_A507V]", "Criterion met"),
    ("QTEGEYSSLEH [IDH3B_Y171]", "Criterion met"),
    ("FRGFSYDDIPD [TMEM230_Y112_YF]", "Criterion met"),
    ("KEEEDYREENN [BMS1_Y651_K652R]", "Criterion met"),
    ("TIMTNYNPNYC [ALK_Y1092_D1091N]", "Criterion met"),
    ("TEYSQYMRRKN [MAX_Y73_I71S]", "Criterion not met"),
    ("TLQSMYGCDVG [HLA-B_Y123]", "Criterion met"),
    ("AELVRYFMEHH [PTPN11_Y80_Q79R_YF]", "Criterion not met"),
    ("AKGMKYVASKK [MET_Y1194_L1195V]", "Criterion not met"),
    ("ANVIRYFPTQA [SLC25A4_Y81]", "Criterion not met"),
    ("ADKSAYLMGVN [MYH7_Y386_L390V]", "Criterion not met"),
    ("SVEVPYEPPEV [TP53_Y220_V217E]", "Criterion met"),
    ("SSDKVYAHQMV [MLH1_Y379]", "Criterion not met"),
    ("GNHVSYYQSDG [CACNA1C_Y1757]", "Criterion met"),
    ("SVVVPYEPPGV [TP53_Y220_E224G]", "Criterion met"),
    ("HLWRIYYDITD [MMP27_Y307]", "Criterion met"),
    ("YASALYRQRRS [FGF11_Y162]", "Criterion not met"),
    ("EHTTLYSDNST [KANSL1_Y223_N225D]", "Criterion not met"),
    ("TKGMIYGGGGG [PSME1_Y249]", "Criterion not met"),
]

Reference for the values: the supplement of paper PMC10065799
